System: HCT-116 colon
assay.comment: NCI-60 one-dose screen, 48 h (100 = growth as untreated, 0 = no growth, -100 = all killed)
test.settings: 10 µM unless noted
About 83,000 compounds went through this panel and 20% of them were active in at least one assay; those are over-represented in the sample as a whole.
Note to self: values exactly at 30% are MET. So growth at or above 30% is MET, below is NOT MET.

// below: answered compounds
-- ask Item CN1CCN(CC(=O)Nc2nc3c(s2)Nc2cc(Cl)c(Cl)cc2NC3=O)CC1 with growth of 30% or above?
-- reply MET

-- ask Repeat for the following compound: COc1ccc(-c2nn(-c3cccc(Cl)c3)cc2C2CC(c3ccccc3)=NN2C(C)=O)cc1 (centres undefined)
-- reply MET

---
-- ask Is it the case that C=C1c2c(C)nn(-c3ccc(C#CCOC4OC(CO)C(O)C(O)C4O)cc3)c2N(C)C23C[C@H]1C1(C)c4c(C)nn(-c5ccc(C#CCOC6OC(CO)C(O)C(O)C6O)cc5)c4N(C)C(C)(C[C@H]12)C3 (some centres undefined) has growth reaching or exceeding 30%?
-- reply NOT MET

-- ask Try this compound too: COc1ccc(Cn2cc3c(c2-c2ccccc2)CCc2cncnc2-3)cc1
-- reply NOT MET

-- ask Can you check NS(=O)(=O)c1ccc(NC2=C(Cl)C(=O)c3ccccc3C2=O)cc1 next?
-- reply MET
